# tested.on: N-type calcium channel (NTCC) (Homo sapiens, UniProt Q00975)
# Sequence (Q00975 whole entry): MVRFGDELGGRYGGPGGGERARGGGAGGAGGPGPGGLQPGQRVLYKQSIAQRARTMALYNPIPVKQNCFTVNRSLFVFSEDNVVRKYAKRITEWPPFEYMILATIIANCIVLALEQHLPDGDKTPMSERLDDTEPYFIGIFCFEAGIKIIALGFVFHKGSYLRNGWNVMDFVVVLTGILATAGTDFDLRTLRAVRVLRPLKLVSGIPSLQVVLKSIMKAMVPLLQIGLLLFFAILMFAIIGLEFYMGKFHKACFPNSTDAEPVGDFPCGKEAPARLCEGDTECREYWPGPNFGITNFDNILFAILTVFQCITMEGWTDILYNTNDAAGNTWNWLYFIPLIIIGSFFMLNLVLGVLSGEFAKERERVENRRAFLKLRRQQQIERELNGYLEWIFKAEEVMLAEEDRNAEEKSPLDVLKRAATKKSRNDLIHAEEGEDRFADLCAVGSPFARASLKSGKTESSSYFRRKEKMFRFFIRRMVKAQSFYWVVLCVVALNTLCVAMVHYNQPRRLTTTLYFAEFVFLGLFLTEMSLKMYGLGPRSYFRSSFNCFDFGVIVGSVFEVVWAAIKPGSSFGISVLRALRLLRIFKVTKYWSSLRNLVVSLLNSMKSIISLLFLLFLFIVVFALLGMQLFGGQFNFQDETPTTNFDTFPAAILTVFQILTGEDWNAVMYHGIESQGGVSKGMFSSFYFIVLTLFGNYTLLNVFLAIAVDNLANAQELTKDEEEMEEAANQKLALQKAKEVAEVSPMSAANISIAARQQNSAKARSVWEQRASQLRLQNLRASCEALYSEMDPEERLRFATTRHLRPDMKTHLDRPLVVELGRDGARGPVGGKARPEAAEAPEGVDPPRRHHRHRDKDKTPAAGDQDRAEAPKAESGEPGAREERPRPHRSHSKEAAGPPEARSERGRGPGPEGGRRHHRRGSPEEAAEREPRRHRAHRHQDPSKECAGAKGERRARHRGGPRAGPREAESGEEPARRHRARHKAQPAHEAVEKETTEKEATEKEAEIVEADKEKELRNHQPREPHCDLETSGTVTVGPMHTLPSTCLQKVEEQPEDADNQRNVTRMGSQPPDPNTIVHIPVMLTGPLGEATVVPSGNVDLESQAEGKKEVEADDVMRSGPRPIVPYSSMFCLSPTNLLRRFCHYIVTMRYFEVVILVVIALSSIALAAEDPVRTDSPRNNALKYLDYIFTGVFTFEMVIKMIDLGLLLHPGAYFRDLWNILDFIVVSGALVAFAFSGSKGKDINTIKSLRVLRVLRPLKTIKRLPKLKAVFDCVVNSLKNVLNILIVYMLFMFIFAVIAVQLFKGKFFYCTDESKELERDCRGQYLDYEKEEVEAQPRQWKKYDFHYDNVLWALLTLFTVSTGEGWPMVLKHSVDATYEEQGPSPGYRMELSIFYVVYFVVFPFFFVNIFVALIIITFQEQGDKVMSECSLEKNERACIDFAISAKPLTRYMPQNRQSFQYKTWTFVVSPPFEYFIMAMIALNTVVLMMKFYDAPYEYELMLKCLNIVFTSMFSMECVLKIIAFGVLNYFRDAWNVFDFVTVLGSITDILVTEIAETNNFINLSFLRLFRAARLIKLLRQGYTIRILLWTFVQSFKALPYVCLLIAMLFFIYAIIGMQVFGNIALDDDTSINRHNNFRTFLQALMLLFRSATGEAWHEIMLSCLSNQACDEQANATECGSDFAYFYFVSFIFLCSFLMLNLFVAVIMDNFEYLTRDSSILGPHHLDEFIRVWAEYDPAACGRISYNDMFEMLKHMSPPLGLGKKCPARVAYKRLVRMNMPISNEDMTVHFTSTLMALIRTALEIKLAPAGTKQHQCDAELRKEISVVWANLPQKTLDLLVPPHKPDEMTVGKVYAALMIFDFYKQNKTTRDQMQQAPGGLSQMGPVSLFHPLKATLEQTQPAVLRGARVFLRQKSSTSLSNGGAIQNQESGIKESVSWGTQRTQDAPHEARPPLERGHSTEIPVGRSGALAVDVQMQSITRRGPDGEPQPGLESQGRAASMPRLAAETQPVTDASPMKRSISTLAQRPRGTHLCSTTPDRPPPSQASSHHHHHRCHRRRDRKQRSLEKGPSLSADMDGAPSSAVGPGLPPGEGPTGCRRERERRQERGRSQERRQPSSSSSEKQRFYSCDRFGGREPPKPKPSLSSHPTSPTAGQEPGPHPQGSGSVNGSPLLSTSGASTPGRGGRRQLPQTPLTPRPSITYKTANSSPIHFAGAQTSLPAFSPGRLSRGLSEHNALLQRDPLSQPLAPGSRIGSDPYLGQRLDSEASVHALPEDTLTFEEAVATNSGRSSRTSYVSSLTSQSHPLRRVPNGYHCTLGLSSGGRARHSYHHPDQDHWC
# Sequence (P54289 25-956 partner limits assumed): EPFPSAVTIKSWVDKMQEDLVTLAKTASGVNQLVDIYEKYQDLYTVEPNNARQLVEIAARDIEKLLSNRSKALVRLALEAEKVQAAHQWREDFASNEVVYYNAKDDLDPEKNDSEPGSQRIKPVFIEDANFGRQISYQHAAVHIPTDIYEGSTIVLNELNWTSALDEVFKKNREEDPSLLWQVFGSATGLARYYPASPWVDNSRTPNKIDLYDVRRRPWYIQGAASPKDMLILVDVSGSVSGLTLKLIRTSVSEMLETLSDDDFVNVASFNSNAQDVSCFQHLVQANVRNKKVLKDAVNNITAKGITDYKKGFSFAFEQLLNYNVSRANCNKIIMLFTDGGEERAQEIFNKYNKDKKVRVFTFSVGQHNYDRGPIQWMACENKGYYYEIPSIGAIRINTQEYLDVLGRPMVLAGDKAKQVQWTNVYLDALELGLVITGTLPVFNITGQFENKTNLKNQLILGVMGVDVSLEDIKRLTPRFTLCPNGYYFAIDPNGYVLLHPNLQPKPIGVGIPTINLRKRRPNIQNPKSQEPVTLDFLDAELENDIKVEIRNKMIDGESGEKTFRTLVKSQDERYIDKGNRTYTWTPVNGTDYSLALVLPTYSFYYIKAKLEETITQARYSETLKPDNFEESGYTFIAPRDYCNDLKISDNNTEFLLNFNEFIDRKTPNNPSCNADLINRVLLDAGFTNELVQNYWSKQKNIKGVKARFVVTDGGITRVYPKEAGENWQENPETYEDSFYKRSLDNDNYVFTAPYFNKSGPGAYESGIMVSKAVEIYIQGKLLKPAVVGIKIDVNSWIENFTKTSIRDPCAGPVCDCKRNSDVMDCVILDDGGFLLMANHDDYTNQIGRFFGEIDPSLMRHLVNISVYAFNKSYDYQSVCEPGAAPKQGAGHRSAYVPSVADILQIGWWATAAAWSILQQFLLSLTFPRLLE
# Sequence (P54289 957-1103 partner limits assumed): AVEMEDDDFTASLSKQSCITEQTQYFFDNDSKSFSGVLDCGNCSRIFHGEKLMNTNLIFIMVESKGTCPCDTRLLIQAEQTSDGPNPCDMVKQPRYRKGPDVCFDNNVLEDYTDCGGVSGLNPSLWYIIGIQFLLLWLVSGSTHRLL
# Sequence (P54284 whole entry partner): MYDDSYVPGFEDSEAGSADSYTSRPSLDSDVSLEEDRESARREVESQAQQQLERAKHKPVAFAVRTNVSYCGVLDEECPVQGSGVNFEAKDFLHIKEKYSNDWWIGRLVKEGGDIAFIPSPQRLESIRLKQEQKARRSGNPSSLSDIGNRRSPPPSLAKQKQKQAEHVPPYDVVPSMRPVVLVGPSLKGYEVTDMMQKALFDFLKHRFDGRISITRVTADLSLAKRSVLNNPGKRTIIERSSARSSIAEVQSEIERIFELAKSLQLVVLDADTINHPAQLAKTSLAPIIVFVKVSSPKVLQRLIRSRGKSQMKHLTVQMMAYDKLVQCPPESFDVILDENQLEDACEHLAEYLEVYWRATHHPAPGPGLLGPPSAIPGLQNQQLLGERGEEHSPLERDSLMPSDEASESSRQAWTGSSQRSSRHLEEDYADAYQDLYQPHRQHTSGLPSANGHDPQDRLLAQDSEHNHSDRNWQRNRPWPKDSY
# test.method.notes: FLIPR calcium mobilization assay for N-type calcium channel
# test.settings: calcium mobilization in vitro assay; differentiated IMR32 cells
assay.metric: IC50 (nM)
Give the value in nM but do not write nM after it.

Problem: Which IC50 is reported for this molecule? "CC(C)N(C1CCN(C(=O)CCNc2ccc(F)c(F)c2)CC1)S(=O)(=O)c1cccc(C(F)(F)F)c1"
Result: 390

Problem: Could you do the same for O=C(CN1CCC(N(C2CC2)S(=O)(=O)c2cccc(C(F)(F)F)c2)CC1)Nc1ccc(C(F)(F)F)cc1 [Compound 55] , please?
Result: 720

Problem: Can you handle CCC(NC1CC1)C(=O)N1CCC(N(C(C)C)S(=O)(=O)c2cccc(C(F)(F)F)c2)CC1 (stereo not shown) [Compound 92] next?
Result: 5270

Problem: Queued: "CC(C)N(C1CCN(C(=O)CCNc2cccc(Cl)c2)CC1)S(=O)(=O)c1cccc(C(F)(F)F)c1"
Result: 900

Problem: Now this one: CC(C)N(C1CCN(C(=O)[C@H](Cc2ccccc2)NCC(N)=O)CC1)S(=O)(=O)c1cccc(C(F)(F)F)c1 [Compound 109]
Result: 790

Problem: Try this molecule next: "CC(C)N(C1CCN(C(=O)CCNc2ccc(Cl)cc2)CC1)S(=O)(=O)c1cccc(C(F)(F)F)c1"
Result: 930

Problem: Repeat with O=C(CN1CCC(N(C2CC2)S(=O)(=O)c2cccc(C(F)(F)F)c2)CC1)Nc1cc(F)cc(F)c1 [Compound 74]
Result: 370

Problem: Ok, now COc1ccc(Cl)cc1NC(=O)CN1CCC(N(C2CC2)S(=O)(=O)c2cccc(C(F)(F)F)c2)CC1 [Compound 82]
Result: 3990

Problem: And what about the molecule "Cc1ccccc1NCCC(=O)N1CCC(N(C(C)C)S(=O)(=O)c2cccc(C(F)(F)F)c2)CC1" ?
Result: 430

Problem: Try this molecule next: "Cc1cccc(C)c1NCCC(=O)N1CCC(N(C(C)C)S(=O)(=O)c2cccc(C(F)(F)F)c2)CC1"
Result: 460

Problem: Same question for Cc1ccc(NC(=O)CN2CCC(N(C(C)C)S(=O)(=O)c3cccc(C(F)(F)F)c3)CC2)cc1 [Compound 42e] please.
Result: 1630

Problem: Same lookup for "CC(C)N(C1CCN(C(=O)CCNc2cccc(OC(F)(F)F)c2)CC1)S(=O)(=O)c1cccc(C(F)(F)F)c1" , please.
Result: 770

Problem: Next entry: COCCNCC(=O)N1CCC(N(C(C)C)S(=O)(=O)c2cccc(C(F)(F)F)c2)CC1 [Compound 95]
Result: 2240

Problem: Follow-up item: CC(C)N(C1CCN(CCCN(c2ccc(F)cc2)c2ccc(F)cc2)CC1)S(=O)(=O)c1cccc(C(F)(F)F)c1 [Compound 8]
Result: 620

Problem: Let us now turn to CC(C)N(C1CCN(CC(=O)Nc2nc3ccc(F)cc3s2)CC1)S(=O)(=O)c1cccc(C(F)(F)F)c1 [Compound 42i]
Result: 670

Problem: Then this molecule: CC(C)c1ccc(NC(=O)CN2CCC(N(C3CC3)S(=O)(=O)c3cccc(C(F)(F)F)c3)CC2)cc1 [Compound 59]
Result: 420
